I'd be grateful if you could share measured growth for these entries.
Tested on: HL-60(TB) leukemia
Experiment: NCI-60 one-dose screen, 48 h (100 = growth as untreated, 0 = no growth, -100 = all killed)
Settings: 10 µM unless noted
About 83,000 compounds went through this panel and 20% of them were active in at least one assay; those are over-represented in the sample as a whole.
The reply should contain only the number, in %.

INPUT: I would be grateful if you could share the reported growth for O=C(CI)Nc1ccc(Br)cc1 .
OUTPUT: 69.6

INPUT: Can you check COc1ccc(-c2nc(SCCC(C)C)nc(Nc3ccc(C(=O)O)cc3)c2C#N)cc1 next?
OUTPUT: 71.6

INPUT: Can you check O=[N+]([O-])c1cccc(-c2ncc(-c3ccc(Cl)cc3Cl)[nH]2)c1 next?
OUTPUT: 70.1

Hello, the source for this data is PubChem BioAssay (NCI), in case you need it.
